Biological target: human TLR8 (Homo sapiens, UniProt Q9NR97)
Sequence (Q9NR97 27-1041): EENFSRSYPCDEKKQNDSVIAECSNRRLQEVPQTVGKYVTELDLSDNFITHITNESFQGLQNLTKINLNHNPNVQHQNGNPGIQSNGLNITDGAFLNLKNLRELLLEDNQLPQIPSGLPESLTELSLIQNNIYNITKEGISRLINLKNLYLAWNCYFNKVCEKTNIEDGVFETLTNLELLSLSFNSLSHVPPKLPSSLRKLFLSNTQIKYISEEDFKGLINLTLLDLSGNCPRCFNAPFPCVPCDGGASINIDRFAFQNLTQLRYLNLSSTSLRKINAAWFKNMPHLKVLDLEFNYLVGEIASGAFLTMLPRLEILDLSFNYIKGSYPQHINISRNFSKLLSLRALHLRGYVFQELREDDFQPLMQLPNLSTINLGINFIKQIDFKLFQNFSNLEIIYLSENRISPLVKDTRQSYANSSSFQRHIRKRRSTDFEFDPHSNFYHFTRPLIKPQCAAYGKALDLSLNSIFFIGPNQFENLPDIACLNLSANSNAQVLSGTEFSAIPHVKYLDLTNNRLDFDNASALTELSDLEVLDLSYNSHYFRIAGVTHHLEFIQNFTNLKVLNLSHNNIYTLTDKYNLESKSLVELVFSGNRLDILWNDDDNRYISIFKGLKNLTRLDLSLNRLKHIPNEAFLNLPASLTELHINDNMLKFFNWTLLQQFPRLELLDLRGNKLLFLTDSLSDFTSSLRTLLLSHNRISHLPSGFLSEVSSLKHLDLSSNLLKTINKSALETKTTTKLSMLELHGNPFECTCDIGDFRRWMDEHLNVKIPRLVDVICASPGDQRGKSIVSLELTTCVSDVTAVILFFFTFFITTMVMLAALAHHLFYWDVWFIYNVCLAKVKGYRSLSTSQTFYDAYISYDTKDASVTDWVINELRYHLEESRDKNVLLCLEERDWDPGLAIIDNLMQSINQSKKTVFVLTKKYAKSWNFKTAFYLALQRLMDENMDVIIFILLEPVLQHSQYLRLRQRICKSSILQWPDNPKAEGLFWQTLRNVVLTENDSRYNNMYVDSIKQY
Assay: Human TLR8-specific reporter gene assay (NF-κB induction, sAP) in HEK293 cells
Conditions: primary screen, HEK293 hTLR8 reporter cells; read-out: EC50, TLR8 agonistic activity (hTLR8-specific NF-κB induction)
pEC50: −log10 of the molar value. Counter-ions that a name gives are not always drawn.
Recorded pEC50 for the following molecules
VALUE_KIND: pEC50

• CCCCNc1nc(N)nc(-c2ccccc2)c1CCCCCN [Compound 32c, dihydrochloride] = 5.63
• CCCCNc1nc(N)nc(-c2ccccc2)c1CCCCN.Cl.Cl [Compound 32b, dihydrochloride] = 5.57
• CCCCNc1cc(C)nc(N)n1 [Compound 15, N^4-Butyl-6-methylpyrimidine-2,4-diamine] = 4.66
• CCCCNc1nc(N)nc(C)c1CCCN.Cl.Cl [Compound 27a, dihydrochloride] = 5.64
• CCCCNc1ccnc(N)n1 [Compound 16, N^4-Butylpyrimidine-2,4-diamine] = 4.14

* * *

Target: human TLR8 (Homo sapiens, UniProt Q9NR97)
Construct: expressed in transfected cells; host or cells: HEK293
Assay: Human TLR8-specific reporter gene assay (NF-κB induction, sAP) in HEK293 cells
Type: cell-based
Settings: primary screen, reporter gene assay
VALUE_KIND: TLR8-agonistic activity (in words)

* CCCCN(C)c1nc(N)nc(C)c1I [Compound 4e] | abrogated activity
* CCCCNc1nc(N)nc(-c2ccccc2)c1I [Compound 29] | inactive
* CCCCCc1nc(N)nc(C)c1I [Compound 4k] | inactive
* CCCCCc1cc(C)nc(N)n1 [Compound 4j, 4-Methyl-6-pentylpyrimidin-2-amine] | inactive
* CCCCN(Cc1ccccc1)c1nc(N)nc(C)c1I [Compound 4f] | abrogated activity
* CCCCOc1nc(N)nc(C)c1I [Compound 4g] | inactive
* CCCCSc1nc(N)nc(C)c1I [Compound 4h] | inactive
* CCCC#Cc1cc(C)nc(N)n1 [Compound 4i] | inactive

// data source = patent US10662161B2
